Each entry below lists one item and its recorded viability, T/C value.
- Test system: 422866-222-R5-J1-PDC complex spheroids viability
- Experimental details: Anticancer human tumor 422866-222-R5-J1-PDC patient-derived pancreatic adenocarcinoma cell line growth inhibition [RAS]
- Cond: second compound 0.316 µM; first compound 0.0949 µM; stronger effect = lower value
State the answer as a number, implicitly in %.

Compound	Value reported
CC1(C)CCC(Nc2ncc(C(F)(F)F)c(-c3c[nH]c4c(P(C)(C)=O)c(C#N)ccc34)n2)CN1 (centres undefined) + C=CC(=O)N1CCN(c2nc(OCC3CCCN3C)nc3c(F)c(-c4nc(N)cc(C)c4C(F)(F)F)c(Cl)cc23)C(C)C1	25.8
CCc1c2c(nc3ccc(O)cc13)-c1cc3c(c(=O)n1C2)COC(=O)[C@]3(O)CC + C=CC(=O)N1CCN(c2nc(OCC3CCCN3C)nc3c(F)c(-c4nc(N)cc(C)c4C(F)(F)F)c(Cl)cc23)C(C)C1	12.8
CCc1c2c(nc3ccc(O)cc13)-c1cc3c(c(=O)n1C2)COC(=O)[C@]3(O)CC + C#Cc1c(F)ccc2cc(O)cc(-c3ncc4c(N5CC6CCC(C5)N6)nc(OCC56CCCN5CC(F)C6)nc4c3F)c12	49.2

Please find the next compound below.
Recorded result, CC1(C)CCC(Nc2ncc(C(F)(F)F)c(-c3c[nH]c4c(P(C)(C)=O)c(C#N)ccc34)n2)CN1 (centres undefined) + C#Cc1c(F)ccc2cc(O)cc(-c3ncc4c(N5CC6CCC(C5)N6)nc(OCC56CCCN5CC(F)C6)nc4c3F)c12 , viability, T/C: 52.6

* * *

- Test system: 422866-222-R5-J1-PDC complex spheroids viability
- Experimental details: Anticancer human tumor 422866-222-R5-J1-PDC cell line growth inhibition [RAS];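 also: spheroids exposed to compounds for 7 days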
- Cond: curve of first compound; second compound 0.1 µM
pIC50: −log10 of the molar value.
Each entry below lists one item and its recorded pIC50 value.

Molecule	pIC50
CCC(CC)c1cc(NC2CCC(N)C2)n2nccc2n1 (stereo not given) + C=CC(=O)N1CCN(c2nc(OCC3CCCN3C)nc3c(F)c(-c4nc(N)cc(C)c4C(F)(F)F)c(Cl)cc23)C(C)C1	> 7.50
CCC(CC)c1cc(NC2CCC(N)C2)n2nccc2n1 (stereo not given) + C#Cc1c(F)ccc2cc(O)cc(-c3ncc4c(N5CC6CCC(C5)N6)nc(OCC56CCCN5CC(F)C6)nc4c3F)c12	5.77
Cc1nc(N2CCC3(CC2)COC(C)C3N)c(CO)nc1Sc1ccnc(N)c1Cl (stereo not given) + C=CC(=O)N1CCN(c2nc(OCC3CCCN3C)nc3c(F)c(-c4nc(N)cc(C)c4C(F)(F)F)c(Cl)cc23)C(C)C1	> 7.50

Recorded result, CC(Nc1ccc2c(c1)OCCn1cc(N3C(=O)OCC3C(F)F)nc1-2)C(N)=O (stereo not given) + C#Cc1c(F)ccc2cc(O)cc(-c3ncc4c(N5CC6CCC(C5)N6)nc(OCC56CCCN5CC(F)C6)nc4c3F)c12 , pIC50: 7.09

Recorded result, CCN1CCN(Cc2ccc(Nc3ncc(F)c(-c4cc(F)c5nc(C)n(C(C)C)c5c4)n3)nc2)CC1 + C#Cc1c(F)ccc2cc(O)cc(-c3ncc4c(N5CC6CCC(C5)N6)nc(OCC56CCCN5CC(F)C6)nc4c3F)c12 , pIC50: < 6.00

Recorded result, CC(C)NCC(C(=O)N1CCN(c2ncnc3c2C(C)CC3O)CC1)c1ccc(Cl)cc1 (stereo not given) + C=CC(=O)N1CCN(c2nc(OCC3CCCN3C)nc3c(F)c(-c4nc(N)cc(C)c4C(F)(F)F)c(Cl)cc23)C(C)C1 , pIC50: > 7.50

Recorded result, Cc1nc(N2CCC3(CC2)COC(C)C3N)c(CO)nc1Sc1ccnc(N)c1Cl (stereo not given) + C#Cc1c(F)ccc2cc(O)cc(-c3ncc4c(N5CC6CCC(C5)N6)nc(OCC56CCCN5CC(F)C6)nc4c3F)c12 , pIC50: 6.90

Recorded result, CC1(C)CCC(Nc2ncc(C(F)(F)F)c(-c3c[nH]c4c(P(C)(C)=O)c(C#N)ccc34)n2)CN1 (stereo not given) + C=CC(=O)N1CCN(c2nc(OCC3CCCN3C)nc3c(F)c(-c4nc(N)cc(C)c4C(F)(F)F)c(Cl)cc23)C(C)C1 , pIC50: > 9.02

Recorded result, C=CC(=O)N1CCN(c2nc(OCC3CCCN3C)nc3c(F)c(-c4nc(N)cc(C)c4C(F)(F)F)c(Cl)cc23)C(C)C1 (stereo not given) + C#Cc1c(F)ccc2cc(O)cc(-c3ncc4c(N5CC6CCC(C5)N6)nc(OCC56CCCN5CC(F)C6)nc4c3F)c12 , pIC50: > 8.50

Recorded result, C[C@@H](NC(=O)c1ncnc(N)c1Cl)c1ncc(C(=O)Nc2cc(C(F)(F)F)c(Cl)cn2)s1 + C#Cc1c(F)ccc2cc(O)cc(-c3ncc4c(N5CC6CCC(C5)N6)nc(OCC56CCCN5CC(F)C6)nc4c3F)c12 , pIC50: < 5.00
